meta.source: the NIST ThermoML archive (doi:10.1021/je020206a)

Below, each entry is listed alongside its reported viscosity.
- Measurement Protocol: wn = mass fraction of the nth substance listed
- Measurement Context: 323.15 K; 101.3 kPa; Liquid; w1 = 0.3
Entry rule: numbers only, all in mPa·s.

Molecule | Units Of Measure | viscosity
OCCNCCO [diethanolamine] + O | mPa·s | 1.41
CN(CCO)CCO [N-methyldiethanolamine] + O | mPa·s | 1.49
NCCO [2-aminoethan-1-ol] + O | mPa·s | 1.29

API: the following record is the query input.
Query :: So what's the measured viscosity for this one? CC(C)(N)CO [2-amino-2-methylpropan-1-ol] + O
Result :: 1.58
